Target: human ALK2 R206H (Homo sapiens, UniProt Q04771, R206H)
Sequence (Q04771 21-509 R206H): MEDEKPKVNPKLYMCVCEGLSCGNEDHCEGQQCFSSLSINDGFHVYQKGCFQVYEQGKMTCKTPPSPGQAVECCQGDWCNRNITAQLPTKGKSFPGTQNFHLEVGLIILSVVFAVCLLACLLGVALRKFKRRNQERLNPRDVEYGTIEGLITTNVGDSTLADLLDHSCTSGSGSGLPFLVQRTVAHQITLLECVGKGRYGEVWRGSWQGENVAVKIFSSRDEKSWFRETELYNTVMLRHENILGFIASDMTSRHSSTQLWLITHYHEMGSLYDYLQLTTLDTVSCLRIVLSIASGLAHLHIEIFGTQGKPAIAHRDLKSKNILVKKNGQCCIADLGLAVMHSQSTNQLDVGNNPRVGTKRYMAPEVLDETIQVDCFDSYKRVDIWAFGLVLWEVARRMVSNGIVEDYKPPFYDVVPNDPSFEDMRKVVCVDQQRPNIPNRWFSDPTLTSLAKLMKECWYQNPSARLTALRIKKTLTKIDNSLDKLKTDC
Assay: Cell-based ALK2-R206H cell activity assay (Smad1-Ser463/Ser465 phosphorylation by AlphaLISA in HEK293-ALK2-R206H cells)
Conditions: phospho-Smad1 AlphaLISA, read-out: Cell Line (Cell Assay, IC50 class)
Measured IC50 by item

INSERT INTO results (compound, observable, endpoint_result) VALUES
  ('Cn1cc(-c2cc3c(N4CCN(C(=O)OCCC#N)CC4)ccnc3[nH]2)cn1', 'IC50', '100 to 500 nM'),
  ('Cc1nc(-c2[nH]c3nccc(N4CCN(C(=O)OC5CCC5)CC4)c3c2C#N)cs1', 'IC50', '≤ 100 nM'),
  ('Cc1nc(-c2[nH]c3nccc(N4CCN(C(=O)OC5COC5)CC4)c3c2Cl)cn1C', 'IC50', '≤ 100 nM'),
  ('O=C(OC1COC1)N1CCN(c2ccnc3[nH]c(-c4cn(C5CCOCC5)cn4)cc23)CC1', 'IC50', '≤ 100 nM'),
  ('Cc1nn(C)cc1-c1cc2c(N3CCN(C(=O)[C@H]4CC[C@H](C#N)CC4)CC3)ccnc2[nH]1', 'IC50', '100 to 500 nM');

Exercise: Consider the compound O=C(OC1COC1)N1CCN(c2ccnc3[nH]c(-c4csc(N5CCC(O)CC5)n4)cc23)CC1 . State its measured IC50.
Key: 100 to 500 nM

Exercise: Please supply the value of reported IC50 for the item O=C(O[C@H]1C[C@H](F)C1)N1CCN(c2ccnc3[nH]c(-c4nc5c(s4)COCC5)cc23)CC1
Key: ≤ 100 nM

###

target: ALK2R206H (mutant ALK2, N-terminally tagged with GST) (Homo sapiens, UniProt Q04771, R206H); experiment: ALK binding assay (LANTHASCREEN TR-FRET competitive binding, displacement of Kinase Tracer 178); settings: read-out: Binding Assay (IC50 class)
pIC50: −log10 of the molar value.
OBSERVABLE: pIC50

For orientation, consider the following solved cases.
INSERT INTO assay_data (line_notation, endpoint_result) VALUES
  ('O=C(OC1COC1)N1CCN(c2ccnc3[nH]c(-c4nc5c(s4)CSCC5)cc23)CC1', '≥ 8.00'),
  ('CCn1cnc(-c2cc3c(N4CCN(C(=O)OC5COC5)CC4)ccnc3[nH]2)c1', '≥ 8.00'),
  ('CCN1CCN(c2ccc(-c3cc4c(N5CCN(C(=O)C6CC6)CC5)ccnc4[nH]3)c(OC)c2)CC1', '7.30 to 8.00');

Exercise: Provide measured pIC50 value, entry: CCOC(=O)N1CCN(c2ccnc3[nH]c(-c4ccc(C)nc4)cc23)CC1
Key: ≥ 8.00

###

target: ALK2R206H (mutant ALK2, N-terminally tagged with GST) (Homo sapiens, UniProt Q04771, R206H); experiment: ALK binding assay (LANTHASCREEN TR-FRET competitive binding, displacement of Kinase Tracer 178); conditions: read-out: Binding Assay (IC50 class)
Parameter: IC50. Scope: all listed entries.

Exercise: Give recorded IC50. Cc1nc(-c2[nH]c3nccc(N4CCN(C(=O)OCC(F)F)CC4)c3c2C#N)cn1C [Compound 321]
Key: ≤ 10 nM

Exercise: Return the recorded IC50 value; entry: Cc1nc(-c2[nH]c3nccc(N4CCN(C(=O)OC5COC5)CC4)c3c2C#N)co1 [Compound 216]
Key: ≤ 10 nM

Exercise: Return IC50 (reported value) for this molecule: Cn1cc(-c2cc3c(N4CCN(C(=O)OC5COC5)CC4)ccnc3[nH]2)c(C#N)n1 [Compound 209]
Key: ≤ 10 nM

###

IC50 reference
target: human ALK2 R206H (Homo sapiens, UniProt Q04771, R206H); assay: Cell-based ALK2-R206H cell activity assay (Smad1-Ser463/Ser465 phosphorylation by AlphaLISA in HEK293-ALK2-R206H cells); conditions: phospho-Smad1 AlphaLISA, read-out: Cell Line (Cell Assay, IC50 class)

INSERT INTO assay_data (molecule, endpoint_result) VALUES
  ('CCOC(=O)N1CCN(c2ccnc3[nH]c(-c4cnn(CC(C)C#N)c4)cc23)CC1 (stereo not drawn)', '0.1 to 0.5 µM');

Exercise: Dear colleague, please send me the reported IC50 for CN(C)CCOc1ccc(-c2cc3c(N4CCN(C(=O)C5CC5)CC4)ccnc3[nH]2)cc1 when you can.
Key: ≤ 0.1 µM

Exercise: Answer with reported IC50 of Cn1cnc(-c2[nH]c3nccc(N4CCN(C(=O)O[C@H]5C[C@@H](F)C5)CC4)c3c2C#N)c1
Key: ≤ 0.1 µM

###

biological target: ALK2R206H (mutant ALK2, N-terminally tagged with GST) (Homo sapiens, UniProt Q04771, R206H); assay: ALK binding assay (LANTHASCREEN TR-FRET competitive binding, displacement of Kinase Tracer 178); conditions: read-out: Binding Assay (IC50 class)
pIC50: −log10 of the molar value.
Entries and their pIC50

INSERT INTO results (molecule, endpoint_result) VALUES
  ('O=C(C1CC1)N1CCN(c2ccnc3[nH]c(-c4ccc(CO)cc4)cc23)CC1 [Compound 57]', '≥ 8.00'),
  ('CCOc1ccc(-c2cc3c(N4CCN(C(=O)C5CC5)CC4)ccnc3[nH]2)cc1 [Compound 127]', '7.30 to 8.00'),
  ('Cc1nsc(-c2cc3c(N4CCN(C(=O)OC5COC5)CC4)ccnc3[nH]2)n1 [Compound 182]', '7.30 to 8.00'),
  ('N#Cc1c(-c2cn3c(n2)COCC3)[nH]c2nccc(N3CCN(C(=O)OC4COC4)CC3)c12 [Compound 394]', '≥ 8.00'),
  ('Cn1cc(-c2[nH]c3nccc(N4CCN(C(=O)OC5CCC5)CC4)c3c2Cl)cn1 [Compound 255]', '≥ 8.00');

Exercise: Give pIC50 for the following molecule: Cn1cc(-c2cc3c(N4CCN(C(=O)OCC5(C)CC5)CC4)ccnc3[nH]2)cn1 [Compound 142]
Key: ≥ 8.00

Exercise: Complete the entry with pIC50 for Cc1cccc(-c2cc3c(N4CCN(C(=O)C5CC5)CC4)ccnc3[nH]2)c1 [Compound 15]
Key: 7.30 to 8.00

Exercise: Specify pIC50 for Cc1nc(-c2cc3c(N4CCN(C(=O)OC5COC5)CC4)ccnc3[nH]2)cs1 [Compound 170] and stop.
Key: ≥ 8.00

Exercise: Specify reported pIC50 for the molecule shown: O=C(OC1COC1)N1CCN(c2ccnc3[nH]c(-c4cn[nH]c4C4CC4)cc23)CC1 [Compound 220]
Key: 7.30 to 8.00

Exercise: Complete the entry with pIC50 for COC(=O)COc1ccc(-c2cc3c(N4CCN(C(=O)C5CC5)CC4)ccnc3[nH]2)cc1 [Compound 348]
Key: ≥ 8.00

Exercise: Using known records, supply pIC50 for CCCOC(=O)N1CCN(c2ccnc3[nH]c(-c4cnn(C)c4)c(C#N)c23)CC1 [Compound 136]
Key: ≥ 8.00

###

target: ALK2R206H (mutant ALK2, N-terminally tagged with GST) (Homo sapiens, UniProt Q04771, R206H); assay: ALK binding assay (LANTHASCREEN TR-FRET competitive binding, displacement of Kinase Tracer 178); conditions: read-out: Binding Assay (IC50 class)
Listed here are compounds together with their documented IC50.

INSERT INTO results (compound, endpoint_result) VALUES
  ('Cn1cc(-c2cc3c(N4CCN(C(=O)OC5CCC5(F)F)CC4)ccnc3[nH]2)cn1 (stereo not drawn) [Compound 262]', '≤ 10 nM'),
  ('O=C(COc1ccc(-c2cc3c(N4CCN(C(=O)C5CC5)CC4)ccnc3[nH]2)cc1)N1CCC1 [Compound 420]', '≤ 10 nM'),
  ('Cn1cc(C#N)c(-c2cc3c(N4CCN(C(=O)OC5COC5)CC4)ccnc3[nH]2)n1 [Compound 211]', '> 50 nM');

Exercise: Tell me its IC50 given Cc1nc(-c2cc3c(N4CCN(C(=O)O[C@@H](C)CF)CC4)ccnc3[nH]2)cs1 [Compound 189] as the entry.
Key: ≤ 10 nM

Exercise: Indicate its recorded IC50; the compound in question is Cc1cc(-c2cc3c(N4CCN(C(=O)OC5COC5)CC4)ccnc3[nH]2)on1 [Compound 104]
Key: ≤ 10 nM

Exercise: State, in one line, measured IC50 of N#Cc1c(-c2nc3c(s2)COCC3)[nH]c2nccc(N3CCN(C(=O)OC4COC4)CC3)c12 [Compound 434]
Key: ≤ 10 nM
